// data source = patent US20250223259A1

Target: SARS2 coronavirus 3CL protease (Severe acute respiratory syndrome coronavirus 2 (2019-nCoV) (SARS-CoV-2), UniProt P0DTD1)
pIC50: −log10 of the molar value.
Reported values of pIC50 for individual entries
Recorded metric: pIC50

* COC(=O)N[C@H](C(=O)N1C[C@H]2[C@@H]([C@H]1C(=O)N[C@@H](CCC(C)(F)F)C(=O)C(=O)NC1CC1)C21CCCC1)C(C)(C)C | 8.01
* CNC(=O)C(=O)[C@H](CCC(C)(F)F)NC(=O)[C@@H]1[C@H]2CCC(F)(F)[C@H]2CN1C(=O)[C@@H](NC(=O)OC)C(C)(C)C | 8.09
* COC(=O)NC1(C(=O)N2CC3(CCCCC3)C[C@H]2C(=O)N[C@@H](CCC(C)(F)F)C(=O)C(=O)NC2CC2)CC1 | 6.30

====

Target: SARS2 coronavirus 3CL protease (Severe acute respiratory syndrome coronavirus 2 (2019-nCoV) (SARS-CoV-2), UniProt P0DTD1)
pIC50: −log10 of the molar value.
Recorded metric: pIC50

* COC(=O)N[C@H](C(=O)N1C[C@H](OC(F)(F)F)C[C@H]1C(=O)N[C@@H](CCC(C)(F)F)C(=O)C(=O)NC1CC1)C(C)(C)C | 7.44
* COC(=O)N[C@H](C(=O)N1CCC(C2CC2)C1C(=O)N[C@@H](CCC(C)(F)F)C(=O)C(=O)NC1CC1)C(C)(C)C (single isomer, unassigned) | 8.00
* COC(=O)N[C@H](C(=O)N1CCC(C(F)F)CC1C(=O)N[C@@H](CCC(C)(F)F)C(=O)C(=O)NC1CC1)C(C)(C)C (single isomer, unassigned) | 7.66
* COC(=O)N[C@H](C(=O)N1CC2(CCCCC2)C[C@H]1C(=O)N[C@@H](CCC(C)(F)F)C(=O)C(=O)NC1CC1)C(F)(F)F | 7.47
* COC(=O)N[C@H](C(=O)N1CC(C(F)(F)F)CCC1C(=O)N[C@@H](CCC(C)(F)F)C(=O)C(=O)NC1CC1)C(C)(C)C (single isomer, unassigned) | 7.29

====

Molecular target: SARS2 coronavirus 3CL protease (Severe acute respiratory syndrome coronavirus 2 (2019-nCoV) (SARS-CoV-2))
Test: SARS2 Coronavirus 3CL Protease Assay (FRET)
Format: biochemical
Conditions: SARS2 3CLPro FRET assay; 5 nM enzyme, 30 min pre-incubation with compound, 15 uM peptide substrate, 4 h room temperature
I'd appreciate it if you marked entries satisfied when IC50 is lower than 0.02 µM and not satisfied when it is not.

- CCNC(=O)C(=O)[C@H](CCC(C)(F)F)NC(=O)[C@@H]1CC2(CCCCC2)CN1C(=O)[C@@H](NC(=O)OC)C(C)(C)C: satisfied
- COC(=O)N[C@H](C(=O)N1CC(C2COC2)C[C@H]1C(=O)N[C@@H](CCC(C)(F)F)C(=O)C(=O)NC1CC1)C(C)(C)C (single isomer, unassigned): not satisfied
- COC(=O)N[C@H](C(=O)N1C[C@@H]2CCC[C@@H]2[C@H]1C(=O)N[C@@H](CCC(C)(F)F)C(=O)C(=O)NC1CC1)C(C)(C)C: satisfied
- COC(=O)N[C@H](C(=O)N1C[C@@H]2CCC[C@@H]2[C@H]1C(=O)N[C@@H](CCC(C)(F)F)C(=O)C(=O)NC1CC1)[C@@H](C)OC: satisfied
- COC(=O)N[C@H](C(=O)N1CC2(CCC2)CC1C(=O)N[C@@H](CCC(C)(F)F)C(=O)C(=O)NC1CC1)C(C)(C)C (single isomer, unassigned): not satisfied
- CNC(=O)C(=O)[C@H](CCC(C)(F)F)NC(=O)[C@@H]1[C@@H]2[C@H](CN1C(=O)[C@@H](NC(=O)OC)C(C)(C)C)CC2(F)F: not satisfied

====

Molecular target: SARS2 coronavirus 3CL protease (Severe acute respiratory syndrome coronavirus 2 (2019-nCoV) (SARS-CoV-2))
Recorded metric: IC50 (nM)

• CNC(=O)C(=O)[C@H](CCC(C)(F)F)NC(=O)[C@@H]1C[C@H](C(F)(F)F)CCN1C(=O)[C@@H](NC(=O)OC)C(C)(C)C = 10
• COC(=O)N[C@H](C(=O)N1C[C@H]2[C@@H]([C@H]1C(=O)N[C@@H](CCC(C)(F)F)C(=O)C(=O)NC1CC1)C21CCCCC1)C(C)(C)C = 31
• COC(=O)N[C@H](C(=O)N1CC2(CCCCC2)C[C@H]1C(=O)N[C@@H](CCC(C)(F)F)C(=O)C(N)=O)C(C)(C)C = 12
• CNC(=O)C(=O)[C@H](CCC(C)(F)F)NC(=O)C1C(C2CC2C)CCN1C(=O)[C@@H](NC(=O)OC)C(C)(C)C (single isomer, unassigned) = 14
• CNC(=O)C(=O)[C@H](CCC(C)(F)F)NC(=O)C1CC(C(F)(F)F)CCN1C(=O)C(NC(=O)OC)C12CC(F)(C1)C2 (single isomer, unassigned) = 35
• COC(=O)N[C@H](C(=O)N1C[C@@H]2CC(C)(C)[C@@H]2[C@H]1C(=O)N[C@@H](CCC(C)(F)F)C(=O)C(=O)NC1CC1)C(C)(C)C = 8.7
• COC(=O)N[C@H](C(=O)N1CC2(CCCCC2)C[C@H]1C(=O)N[C@@H](CCC(C)(F)F)C(=O)C(=O)NCCN1CCOCC1)C(C)(C)C = 137
• CNC(=O)C(=O)[C@H](CCC(C)(F)F)NC(=O)[C@@H]1[C@H]2CCC[C@H]2CN1C(=O)[C@@H](NC(=O)OCC(F)F)C(C)(C)C = 15
• COC(=O)N[C@H](C(=O)N1CC(C2CCOC2)C[C@H]1C(=O)N[C@@H](CCC(C)(F)F)C(=O)C(=O)NC1CC1)C(C)(C)C (single isomer, unassigned) = 201
• COCCNC(=O)C(=O)[C@H](CCC(C)(F)F)NC(=O)[C@@H]1[C@H]2CCC[C@H]2CN1C(=O)[C@@H](NC(=O)OC)C(C)(C)C = 61
• CNC(=O)C(=O)[C@H](CCC(C)(F)F)NC(=O)C1CC(C)(F)CCN1C(=O)[C@@H](NC(=O)OC)C(C)(C)C (single isomer, unassigned) = 19
• CC(C)OC(=O)N[C@H](C(=O)N1CC2(CCCCC2)C[C@H]1C(=O)N[C@@H](CCC(C)(F)F)C(=O)C(=O)NC1CC1)C(C)(C)C = 60

====

Target: SARS2 coronavirus 3CL protease (Severe acute respiratory syndrome coronavirus 2 (2019-nCoV) (SARS-CoV-2), UniProt P0DTD1)
Assay: SARS2 Coronavirus 3CL Protease Assay (FRET)
Format: biochemical
Settings: SARS2 3CLPro FRET assay; 5 nM enzyme, 30 min pre-incubation with compound, 15 uM peptide substrate, 4 h room temperature
Recorded metric: IC50 (nM)

* COC(=O)NC(C(=O)N1CC2(CCCCC2)C[C@H]1C(=O)N[C@@H](CCC(C)(F)F)C(=O)C(=O)NC1CC1)C1CCC1 (single isomer, unassigned) | 32
* CNC(=O)C(=O)[C@H](CCC(C)(F)F)NC(=O)[C@@H]1[C@H]2CCC[C@H]2CN1C(=O)C(NC(=O)OC)C1(C(F)(F)F)CC1 (some centres unmarked) | 21
* COC(=O)N[C@H](C(=O)N1CCC2(CCC2)CC1C(=O)N[C@@H](CCC(C)(F)F)C(=O)C(=O)NC1CC1)C(C)(C)C (single isomer, unassigned) | 13
* COC(=O)N[C@H](C(=O)N1C[C@H](OC(F)F)C[C@H]1C(=O)N[C@@H](CCC(C)(F)F)C(=O)C(=O)NC1CC1)C(C)(C)C | 46
* CCC1CCN(C(=O)[C@@H](NC(=O)OC)C(C)(C)C)C1C(=O)N[C@@H](CCC(C)(F)F)C(=O)C(=O)NC1CC1 (single isomer, unassigned) | 48

====

Listing: pIC50 of selected compounds
Target: SARS2 coronavirus 3CL protease (Severe acute respiratory syndrome coronavirus 2 (2019-nCoV) (SARS-CoV-2), UniProt P0DTD1)
pIC50: −log10 of the molar value.
Recorded metric: pIC50

• CC(C)OC(=O)N[C@H](C(=O)N1CC2(CCCCC2)C[C@H]1C(=O)N[C@@H](CCC(C)(F)F)C(=O)C(=O)NC1CC1)C1CCCCC1 = 7.21
• CNC(=O)C(=O)[C@H](CCC(C)(F)F)NC(=O)C1C2CC(F)(F)CC2CN1C(=O)[C@@H](NC(=O)OC)C(C)(C)C (single isomer, unassigned) = 7.96
• COC(=O)N[C@H](C(=O)N1C[C@H]2[C@@H]([C@H]1C(=O)N[C@@H](CCC(C)(F)F)C(=O)C(=O)NC1CC1)C21CCOCC1)C(C)(C)C = 7.72
• CNC(=O)N[C@H](C(=O)N1CC2(CCCCC2)C[C@H]1C(=O)N[C@@H](CCC(C)(F)F)C(=O)C(=O)NC1CC1)C(C)(C)C = 7.09
• COC(=O)N[C@H](C(=O)N1CC(C)CCC1C(=O)N[C@@H](CCC(C)(F)F)C(=O)C(=O)NC1CC1)C(C)(C)C (single isomer, unassigned) = 7.40
• CNC(=O)C(=O)[C@H](CCC(C)(F)F)NC(=O)[C@@H]1CC2(CN1C(=O)[C@@H](NC(=O)OC)C(C)(C)C)CC2(F)F (single isomer, unassigned) = 7.55
• COC(=O)N[C@H](C(=O)N1CC(C)(C)CCC1C(=O)N[C@@H](CCC(C)(F)F)C(=O)C(=O)NC1CC1)C(C)(C)C (single isomer, unassigned) = 6.84
• COC(=O)N[C@H](C(=O)N1CCCC(C)C1C(=O)N[C@@H](CCC(C)(F)F)C(=O)C(=O)NC1CC1)C(C)(C)C (single isomer, unassigned) = 7.22
• COC(=O)N[C@H](C(=O)N1CC(F)(F)CC[C@H]1C(=O)N[C@@H](CCC(C)(F)F)C(=O)C(=O)NC1CC1)C(C)(C)C = 6.13
• COC(=O)N[C@H](C(=O)N1CC[C@]2(C[C@H]1C(=O)N[C@@H](CCC(C)(F)F)C(=O)C(=O)NC1CC1)CC2(F)F)C(C)(C)C = 8.05
• COC(=O)N[C@H](C(=O)N1CCC(C)C1C(=O)N[C@@H](CCC(C)(F)F)C(=O)C(=O)NC1CC1)C(C)(C)C (single isomer, unassigned) = 7.01
